Record form. Attribute: inhibition. Fill in for each entry.
Molecular target: Glucose transporter (Leishmania mexicana) (UniProt O61059)
Experiment: ST_JUDE_LEISH: Cytotoxicity at 2uM final concentration against transgenic Leishmania Mexicana promastigotes LmGT2 that are glucose transport deficient and complemented with the L. Mexicana glucose transporter 2. Activity is measured by DNA content using SYBR green in vitro
Assay type: functional
Just the number in %, nothing appended.

Write down inhibition measured for item C#Cc1cccc(NC(=O)[C@H](CC2CCCCC2)Nc2ccc(C#N)c3ccccc23)c1 1.87

Read off the recorded inhibition for CN1CCCc2ccc(NC(=O)C=Cc3ccc(-c4ccc(F)cc4F)o3)cc2C1 2.73

Answer with the recorded inhibition of N=C(N)Nc1nc(-c2ccc(NC(=N)N3CCC[C@H]3CN3CCCC3)cc2)cs1 only. -0.7

Answer with the recorded inhibition for the compound listed here: CC1(C)N=C(N)N=C(N)N1c1cccc(C(F)(F)F)c1 -3.44

State, in one line, measured inhibition of O=C(Nc1ccccc1)N(Cc1cccc(-c2ccc(CNC3CCCC3)cc2)c1)C1CCN(Cc2ccccc2)CC1 2.99

Answer with reported inhibition of CN(CCN)Cc1cccc(-c2cccc(-c3nc4cc(C(F)(F)F)ccc4[nH]3)c2)c1 3.72

Supply inhibition value. Item: O=[N+]([O-])c1cccc(CNC2CCN(Cc3ccc(-c4ccccc4)cc3)CC2)c1 2.9

Identify the reported inhibition for the following entry. Cc1n[nH]c2ccc(-c3cc(OC[C@@H](N)Cc4ccccc4)cnc3-c3cc4ccccc4s3)cc12 2.02

Name the recorded inhibition of the item Cc1cc2c(cc1C(F)(F)F)N(C(=O)Nc1cnc(OCCN(C)C)c(C(F)(F)F)c1)CC2 in your answer. 6.3
